# sfGFP reporter fluorescence per record follows
B1: library; numbered along this chain (parent)
chain: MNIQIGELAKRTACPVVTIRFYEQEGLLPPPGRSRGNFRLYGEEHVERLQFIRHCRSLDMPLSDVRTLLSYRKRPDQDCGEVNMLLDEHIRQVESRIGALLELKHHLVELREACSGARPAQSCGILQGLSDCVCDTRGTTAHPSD

Variants of: B1
Assay: sfGFP reporter fluorescence (15 h) (µM FITC); higher = higher leak
Details: library round: Round 0; ligand: none
# respond with the number and nothing more

See these solved cases before continuing.
What sfGFP reporter fluorescence value was documented for this variant, "D131H" ?
0.0621

What sfGFP reporter fluorescence value was documented for this variant, "V16A" ?
0.059

What sfGFP reporter fluorescence value was documented for this variant, "E109M" ?
0.061

More entries:
What sfGFP reporter fluorescence value was documented for this variant, "E109K" ?
0.0649

What sfGFP reporter fluorescence value was documented for this variant, "L27R" ?
0.0656

What sfGFP reporter fluorescence value was documented for this variant, "Q50A" ?
0.0662
